# TEST DESCRIPTION: physchem
# ASSAY SETUP: pH 3.8
VALUE KIND: solubility (mg/mL)
Value expressed in mg/mL; do not type the unit.

Consider the compound shown here: `CNS(=O)(=O)C[C@H]1CC[C@H](N(C)c2ncnc3[nH]ccc23)CC1.O=C(O)/C=C\C(=O)O` What is its recorded solubility?
10.4

----------
# TEST DESCRIPTION: Other pharmacokinetic studies in dogs (IV and PO)
# ASSAY SETUP: dog, plasma, intravenous
VALUE KIND: clearance (mL/min/kg)
Entry rule: numbers only, all in mL/min/kg.

Look up clearance: `CNS(=O)(=O)C[C@H]1CC[C@H](N(C)c2ncnc3[nH]ccc23)CC1.O=C(O)/C=C\C(=O)O`
4

----------
# TEST DESCRIPTION: Other pharmacokinetic studies in dogs (IV and PO)
# ASSAY SETUP: dog, plasma, po, absolute oral bioavailability, mean range, dogs
VALUE KIND: bioavailability

What value of bioavailability has been reported for the following compound? CNS(=O)(=O)C[C@H]1CC[C@H](N(C)c2ncnc3[nH]ccc23)CC1.O=C(O)/C=C\C(=O)O [Compound 1]
79 to 89%
